The origin of these recorded values is patent US11034692B1.

Documented Ki across a set of compounds
Biological target: HPK1 (Homo sapiens)
Sequence (Q92918 whole entry, looked up): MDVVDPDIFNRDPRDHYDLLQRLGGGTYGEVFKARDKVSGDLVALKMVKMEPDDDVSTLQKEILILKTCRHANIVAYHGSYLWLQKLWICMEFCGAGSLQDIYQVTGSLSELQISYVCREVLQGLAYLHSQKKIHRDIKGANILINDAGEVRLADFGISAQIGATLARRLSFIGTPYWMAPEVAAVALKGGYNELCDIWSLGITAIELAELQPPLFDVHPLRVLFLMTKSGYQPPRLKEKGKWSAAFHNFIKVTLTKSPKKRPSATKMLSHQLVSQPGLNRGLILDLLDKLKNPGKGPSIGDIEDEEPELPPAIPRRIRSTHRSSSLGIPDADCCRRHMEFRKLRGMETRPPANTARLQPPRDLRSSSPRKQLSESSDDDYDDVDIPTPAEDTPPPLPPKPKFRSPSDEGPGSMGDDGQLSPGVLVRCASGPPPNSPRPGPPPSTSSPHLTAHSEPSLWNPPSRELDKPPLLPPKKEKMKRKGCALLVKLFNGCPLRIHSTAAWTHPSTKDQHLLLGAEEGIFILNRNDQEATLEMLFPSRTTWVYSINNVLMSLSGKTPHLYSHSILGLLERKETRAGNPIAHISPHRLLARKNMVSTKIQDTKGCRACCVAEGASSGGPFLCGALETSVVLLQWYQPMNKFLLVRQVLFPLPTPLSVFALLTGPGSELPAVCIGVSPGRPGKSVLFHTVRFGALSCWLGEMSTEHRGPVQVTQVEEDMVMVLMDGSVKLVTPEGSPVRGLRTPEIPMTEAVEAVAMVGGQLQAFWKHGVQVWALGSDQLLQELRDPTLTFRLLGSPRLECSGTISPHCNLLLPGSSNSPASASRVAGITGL
Assay: HPK1 Lantha Binding Assay ("Lanth")
Conditions: Table B1-1, read-out: HPK1 Ki (μM) (Lanth)
attribute-measured: Ki (µM)

[[record]]
compound = "Cc1ccncc1-c1cc2cc(NC(=O)[C@@H]3C[C@H]3C#N)ncc2c(N)n1 (racemic) [Compound 43]"
attribute_measured = "Ki"
u = "µM"
data_value = 0.00205

[[record]]
compound = "CNC(=O)c1ccc(-c2cc3cc(NC(=O)[C@@H]4C[C@@H]4F)ncc3c(N)n2)c(C)c1 (racemic) [Compound 49]"
attribute_measured = "Ki"
u = "µM"
data_value = 0.00682

[[record]]
compound = "CC(C)(O)Cc1ccncc1-c1cc2cc(NC(=O)[C@H]3C[C@@H]3C#N)ncc2c(N)n1 (racemic) [Compound 225]"
attribute_measured = "Ki"
u = "µM"
data_value = 0.0842

[[record]]
compound = "Cc1ccncc1-c1cc2cc(NC(=O)NC(C)CO)ncc2c(N)n1 (racemic) [Compound 177]"
attribute_measured = "Ki"
u = "µM"
data_value = 0.0085

[[record]]
compound = "CCc1ccncc1-c1cc2cc(NC(=O)NC(C)C(N)=O)ncc2c(N)n1 (racemic) [Compound 34]"
attribute_measured = "Ki"
u = "µM"
data_value = 0.034

[[record]]
compound = "Cc1cc(N)ncc1-c1cc2cc(NC(=O)[C@@H]3C[C@@H]3F)ncc2c(N)n1 (racemic) [Compound 16]"
attribute_measured = "Ki"
u = "µM"
data_value = 0.00721

[[record]]
compound = "CCNC(=O)[C@H]1C[C@H]1C(=O)Nc1cc2cc(-c3cnccc3C)nc(N)c2cn1 (racemic) [Compound 137]"
attribute_measured = "Ki"
u = "µM"
data_value = 0.11

